All values here come from PubChem BioAssay (NCI).

# System: U251 CNS
# assay_overview: NCI tumour cell line growth inhibition, 48 h
TGI for assorted compounds
metric: TGI

• O=C(NCCCCCCCNC(=O)OCc1ccc2c(Cl)cc(Cl)c(O)c2n1)OCc1ccc2c(Cl)cc(Cl)c(O)c2n1 = 3.09 µM
• CC(C)OC1OC(CO)C(O)CC1n1cc(F)c(=O)[nH]c1=O (stereo not drawn) = > 100 µM
• CC(NC(=O)c1ccccc1)(C(=O)O)C(=O)O = > 100 µM
• CSc1nc(NC(C)C)c2c(n1)Sc1nc3ccccc3n1C2O (stereo not drawn) = > 100 µM
• CC(C)C(=O)Oc1cc2c(=O)oc3c(OC(=O)C(C)C)c(OC(=O)C(C)C)cc4c(=O)oc(c1OC(=O)C(C)C)c2c34 = > 100 µM
• COc1ccccc1NC(=O)C(CC(C(=O)Nc1ccccc1OC)/C(C)=N/Nc1ccc([N+](=O)[O-])cc1[N+](=O)[O-])/C(C)=N/Nc1ccc([N+](=O)[O-])cc1[N+](=O)[O-] (stereo not drawn) = > 100 µM
• COC(=O)CCCC(=O)NC1=C(NCc2ccccc2)C(=O)c2ccccc2C1=O = > 100 µM
• CC1CC/C(=C\c2ccc(Cl)cc2)c2nc(N)c(C#N)c(-c3ccc(Cl)cc3)c21 (stereo not drawn) = > 100 µM
